Test: soluble on expression in E. coli; label from the status in PepcDB or PDB records
Assay Endpoint: soluble on expression in E. coli

| Macromolecule Sequence | Observed Value |
| --- | --- |
| MGSDKIHHHHHHMTMLSTPQPTLADLAIEPGLPTVVSPRAGAAISLEEAAPLLRAIVDDTLERAGGVLFTGFHVASIDAFQSFAGSFGHPLIGYEFASTPRSQVEGAVYTSTEYPPHRSIPLHNEQSYTREWPLRIWFHCALAARSGGATPIADSRAIYRALDPALVDRFAKRELLYVRNFGQGLDLPWEQAFGSADPRTVERICRARGIECEWRDSEDGELLLRTRERCQAVARHPRTGEHVWFNQANLFHLSSLDEDMQEALIDSVGLENVPRNVYYGDGEPLEADALAEIRGVLDQQRIVFPWLTGDVLMLDNMLSAHARDPFEGPRKVVVAMARSYSEAEGEKRTAAP | not soluble |
| MTSGTSVINDKVLQYETFISEVLRRDLQKVLEQRDAVYEKIAQYLQLKNTIQSIQESGSKELKTDVDLGCNFYVQAHVPDASRIYVAVGYGFFVEFTHAEALKFIEKKTNQLTEYTEVLTKDAAKIKANIRMVLEGLRELQGLKDLPEDRRREVF | not soluble |
| MGHHHHHHSHMVKPLSPLNIQKLARHHGPRLWSQLLGRLRQVGHVGSGVRDQPGQHGETPISTKNTKISQASWPTPVVPATREAEVEGSLKSWGQGCSELLSHHCTPAWATVRPCLKKKRKMKQKLTCLLPPN | not soluble |

###

Experiment: soluble on expression in E. coli; label from the status in PepcDB or PDB records
Assay Endpoint: soluble on expression in E. coli

These solved cases illustrate the format of a correct answer.
| Macromolecule Sequence | soluble on expression in E. coli |
| --- | --- |
| GMCVEKTPWELVIDFHGHTCPDIALGYRIAQLAQREMGIRPAPDSECLVKAYTQSCALDAIQVLNKATIGRHALIIEETHRYMYQFHFTGTQDIHQFTVSPAVLDHLETLRHPDLSPRERQNKVLEGVQYVLTLEESAFCHYDKIPGQLSKIV | soluble |
| MVPTPKPVVDRMLELADVDETDVLYDLGSGDGRIVIRAARTHGARGVGIEIDPDLVKKARKNAKEAGVADLVEFRQGDLFEADISEATVVTLYLLPSVNQKLRPILFEQLSPGTPVVSHDFDMGRWAPDRTVDLEGDTVYRWTIPLEHHHHHH | not soluble |
| MGHHHHHHSHEPRVNTSALQKIAADMSNIIENLDTRELHFEGEEVDYDVSPSDPKIQEVYIPFSAIYNTQGFKEPNIQTYLSGCPIKAQVLEVERFTSTTRVPSINLYTIELTHGEFKWQVKRKFKHFQEFHRELLKYKAFIRIPIPTRRHTFRRQN | not soluble |
| GAMGNERRILEQKKHYFWLLLQRTYTKTGKPKPSTWDLASKELGESLEYKALGDEDNIRRQIFEDFKPE | soluble |

Query :: Given the sequence MLHLVLYQPEIPQNAGNVARTAAALGWPLHLIRPLGFLLSSPKLKRAGLDYWPHVDLRLHDSFAAFLEALPRGARVFAFSARGEASLYEARFREGDYLLFGPESRGLPEEVLARFPTLKIPMPGPVRSLNLAVAVGVAAYEAYRQLTGR , what is its reported soluble on expression in E. coli?
Result :: soluble

Query :: Tell me the measured soluble on expression in E. coli of MLFGQSVFQSVVERLKQEKEEEGTEPSPPAGHRIAGFSSGFVVDTHIEAPQPANGNLDAYLAFLADPAPPPESQTEPEPEPMPAHLEKTALADVSAELAIQETDTVATLAEKRRAFARLNHPDRVKPQFRHNATLRMTAANLLIDQALRMLRTREHFR , please.
Result :: not soluble

Query :: Which soluble on expression in E. coli value is on record for MKVIAVNGGPRKQWNTATLLHKALEGAQSAGAETDLFHLYDLNYKGCISCFGCKRKNSSRIGHCVLKDELTPLLEEVLKCDALLLGSPIYFGNVTGAMRSFLERLFFSLLSYNEGQRTVFPRKVASGFIYTMNVPEDFLPQLEHHHHHH ?
Result :: soluble

Query :: Give the measured soluble on expression in E. coli of MRIYLIGFMCSGKSTVGSLLSRSLNIPFYDVDEEVQKREGLSIPQIFEKKGEAYFRKLEFEVLKDLSEKENVVISTGGGLGANEEALNFMKSRGTTVFIDIPFEVFLERCKDSKERPLLKRPLDEIKNLFEERRKIYSKADIKVKGEKPPEEVVKEILLSLEGNALGG .
Result :: soluble

Query :: # soluble on expression in E. coli lookup, item MTRLLYYEDAYLKEAKAKVLEVKDNALLLDQTIFYPTGGGQPHDRGWINGVEVLDVYKDEEGNVWHVVKELEKFKPGDEVELKLDWEYRYKLMRIHSALHLLENVLDQILGKGNWEVVGSGMTHEKGRLDVGYPENLNAYKEKIIELFNRYVDEGGEIKIWWEGEKRYTQIRDFDPIPCGGTHVKDIREIGHIKKLKRSSIGRGKQRLEIWLEDLEHHHHHH
Result :: not soluble
